Entries annotated with measured change in vivo at 1.875 mg/kg
system: Adult mongrel dogs; experiment: Cardiotonic activity: hemodynamic and inotropic responses (MAP, HR, dP/dt, contractile force) in anesthetized dogs, iv infusion; assay type: in vivo, mongrel dog; conditions: Canis lupus familiaris, Table 1, 1.875 mg/kg iv, cumulative dose, read-out: CF (myocardial contractile force), % from Control
Field format: number, assumed %, no unit text.

- COMPOUND: "OC(CSc1ncnc2[nH]cnc12)CN1CCN(Cc2ccccc2)CC1 (centres unmarked) [Example 5, Hydrate]"
  ASSAY SYSTEM: "Adult mongrel dogs"
  change in vivo at 1.875 mg/kg [%]: 43
- COMPOUND: "OC(CSc1ncnc2[nH]cnc12)CN1CCN(C(c2ccccc2)c2ccc(Cl)cc2)CC1 (centres unmarked) [Example 7, Monohydrate]"
  ASSAY SYSTEM: "Adult mongrel dogs"
  change in vivo at 1.875 mg/kg [%]: 97
- COMPOUND: "O[C@@H](CSc1ncnc2nc[nH]c12)CN1CCN(C(c2ccc(F)cc2)c2ccc(F)cc2)CC1"
  ASSAY SYSTEM: "Adult mongrel dogs"
  change in vivo at 1.875 mg/kg [%]: 151
- COMPOUND: "OC(CSc1ncnc2[nH]cnc12)CN1CCN(C(c2ccccc2)c2ccccc2)CC1 (centres unmarked) [Example 4, Hemihydrate]"
  ASSAY SYSTEM: "Adult mongrel dogs"
  change in vivo at 1.875 mg/kg [%]: 86

Would you kindly look at the next entry?
Give me measured change in vivo at 1.875 mg/kg, please, for this compound: OC(COc1ncnc2c1ncn2C1CCCCO1)CN1CCN(C(c2ccccc2)c2ccccc2)CC1 (centres unmarked)
43

Value source: patent US5164390A
